Molecular target: T1, full-length beta-Catenin (Uniprot ID P35222) (Homo sapiens (Human), UniProt P35222 1-781)
T1 construct: Said to be full-length in the fluorescence polarization assay; also called bCat; B-Catenin
T1 sequence: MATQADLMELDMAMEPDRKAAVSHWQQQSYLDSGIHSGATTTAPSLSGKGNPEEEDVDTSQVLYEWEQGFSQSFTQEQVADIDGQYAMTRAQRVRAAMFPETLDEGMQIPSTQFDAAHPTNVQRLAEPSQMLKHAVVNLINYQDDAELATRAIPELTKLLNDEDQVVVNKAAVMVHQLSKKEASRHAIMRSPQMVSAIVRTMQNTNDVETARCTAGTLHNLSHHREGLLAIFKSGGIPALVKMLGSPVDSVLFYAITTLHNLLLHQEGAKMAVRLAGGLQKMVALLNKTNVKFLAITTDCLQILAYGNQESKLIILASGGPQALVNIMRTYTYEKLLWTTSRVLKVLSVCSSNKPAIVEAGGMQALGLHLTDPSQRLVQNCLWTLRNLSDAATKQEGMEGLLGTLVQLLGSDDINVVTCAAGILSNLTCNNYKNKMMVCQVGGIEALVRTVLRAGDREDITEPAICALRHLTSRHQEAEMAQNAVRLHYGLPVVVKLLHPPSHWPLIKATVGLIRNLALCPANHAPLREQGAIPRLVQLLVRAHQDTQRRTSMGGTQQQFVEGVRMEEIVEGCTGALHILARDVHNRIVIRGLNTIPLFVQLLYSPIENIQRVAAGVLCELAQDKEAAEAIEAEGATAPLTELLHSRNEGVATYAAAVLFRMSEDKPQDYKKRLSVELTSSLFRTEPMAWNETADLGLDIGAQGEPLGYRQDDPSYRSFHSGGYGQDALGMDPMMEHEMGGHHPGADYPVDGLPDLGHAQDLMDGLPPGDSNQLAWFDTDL
Assay: fluorescence polarization competition; peptide titrated against 10 nM full-length beta-catenin + 10 nM 5FAM-TCF4(10-53) probe
Starred links: 1 amine or outer side, 2 acyl side, 3 side chain; linkers in the order of their positions; H or OH if unused. Positions of bridges follow the written chain, without caps; N, C: chain ends. Non-standard residues stand in square brackets, D forms with d. Primed or numbered codes have the meaning given here. B5(16) = 2-amino-2-(pent-4-en-1-yl)hept-6-enoic acid = 2,2-bis(4-pentenyl)glycine (stitching residue), C=CCCCC(CCCC=C)(N[*:1])C(=O)[*:2]; B5(9) = 2-amino-2-(pent-4-en-1-yl)hept-6-enoic acid (2,2-bis(4-pentenyl)glycine), C=CCCCC(CCCC=C)(N[*:1])C(=O)[*:2]; Bta = N[C@@H](Cc1csc2ccccc12)C(=O)O; αAllylPro = C=CC[C@@]1(C(=O)O)CCCN1; S8 = C=CCCCCCC[C@](C)(N)C(=O)O
Endpoint Name: EC50 (nM)

1. Ac-[αAllylPro]DI[B5(16)]DEAAFQ[S8]F[Bta]R-NH2 (staple 1-4, 4-11, Stapled peptide) [I-633] | 88
2. XDIXDEAAFQXFXT (not fully specified; Ac-PL3-Asp-Ile-B5-Asp-Glu-Ala-Ala-Phe-Gln-S8-Phe-BztA-Thr-NH2; N-terminal acetyl, C-terminal amide; non-natural PL3 (1), B5 (4), S8 (11), BztA (13); staples PL3-B5 and B5-S8 by olefin metathesis, Stapled peptide; Earlier-eluting staple isomer composition) [I-641] | 122
3. XDIXDEAAFQXFXP (not fully specified; Ac-PL3-Asp-Ile-B5-Asp-Glu-Ala-Ala-Phe-Gln-S8-Phe-BztA-Pro-NH2; N-terminal acetyl, C-terminal amide; non-natural PL3 (1), B5 (4), S8 (11), BztA (13); staples PL3-B5 and B5-S8 by olefin metathesis, Stapled peptide; Later-eluting staple isomer composition) [I-638] | 3880
4. XDLXDEAAFTXFXQ (not fully specified; Ac-PL3-Asp-Leu-B5-Asp-Glu-Ala-Ala-Phe-Thr-S8-Phe-BztA-Gln-NH2; N-terminal acetyl, C-terminal amide; non-natural PL3 (1), B5 (4), S8 (11), BztA (13); staples PL3-B5 and B5-S8 by olefin metathesis, Stapled peptide; Earlier-eluting staple isomer composition) [I-622] | 230
5. Ac-[αAllylPro]DI[B5(9)]DEAAFQ[S8]F[Bta]W-NH2 (staple 1-4, 4-11, Stapled peptide; Later-eluting staple isomer composition) [I-644] | 808
6. Ac-[αAllylPro]DI[B5(16)]DEAAFQ[S8]F[Bta]L-NH2 (staple 1-4, 4-11, Stapled peptide) [I-634] | 425

Taken from patent US20240116985A1.
